Data provenance is patent US4395413A.

Assay: acute toxicity on white mice (strain CFLP)
Conditions: mouse, in vivo, ip, 4 days observation, read-out: LD50 i.p.
Please use label 1 for LD50 at 96 h under 200 mg/kg and label 0 for everything else, ties included.

Worked examples, 5 compounds total:
CCCCC=C1CCCCC1=NOCCCN1CCN(Cc2ccccc2)CC1 :: label 1
CCCCC1CCCCC1=NOCC(C)CN(C)C (centres unmarked) :: label 1
CCCCC1CCCCC1=NOCCCN(C)C (centres unmarked) :: label 1
C=CCC1CCCCC1=NOCCCN1CCN(C)CC1 (centres unmarked) :: label 0
CCCC=C1CCCCC1=NOCCCN1CCN(C)CC1 :: label 0

[ask] Lab note: LD50 at 96 h threshold 200 mg/kg. Does this compound come in strictly under it? CCCCC1CCCCC1=NOCCN(C)C (centres unmarked)
[reply] label 1

[ask] Lab note: LD50 at 96 h threshold 200 mg/kg. Does this compound come in strictly under it? CCCCC1CCCCC1=NOCCCN1CCN(Cc2ccccc2)CC1 (centres unmarked)
[reply] label 0

[ask] Lab note: LD50 at 96 h threshold 200 mg/kg. Does this compound come in strictly under it? CCCCCCCC=C1CCCCC1=NOCCCN1CCN(C)CC1
[reply] label 0

[ask] Lab note: LD50 at 96 h threshold 200 mg/kg. Does this compound come in strictly under it? CCCC=C1CCCCC1=NOCCCN1CCN(Cc2ccccc2)CC1
[reply] label 0
